Experiment: Particle size distribution of manufacturing batches of the compound of Formula I
Format: physicochemical
Settings: Table 3; crystalline Form I batches; listed as Batch 084, di(4-methylbenzenesulfonate)

>  <Compound>
COc1cc2c(cc1OC)[C@H]1C[C@@H](OC(=O)[C@@H](N)C(C)C)[C@H](CC(C)C)CN1CC2 [Compound of Formula I, di(4-methylbenzenesulfonate)]

>  <Particle size distribution, D50, µm>
13

$$$$

====

Assay: Particle size distribution of manufacturing batches of the compound of Formula I
Type: physicochemical
Details: Table 3; crystalline Form I batches; listed as Batch 087, di(4-methylbenzenesulfonate)

>  <Compound>
COc1cc2c(cc1OC)[C@H]1C[C@@H](OC(=O)[C@@H](N)C(C)C)[C@H](CC(C)C)CN1CC2 [Compound of Formula I, di(4-methylbenzenesulfonate)]

>  <Particle size distribution, D90 / µm>
45

$$$$
